target: SARS-COV-2 RBD extracellular domain expressed with a C-terminal mouse IgG2a Fc (SARS-CoV-2); assay: Biacore SPR, mAb captured on anti-hFc, 37 C
Assign t½ to each entry below.
Record the value in h, omitting the unit from your answer.

## Input What value of measured t½ is listed for mAb14294 (antibody, V domains shown) VH: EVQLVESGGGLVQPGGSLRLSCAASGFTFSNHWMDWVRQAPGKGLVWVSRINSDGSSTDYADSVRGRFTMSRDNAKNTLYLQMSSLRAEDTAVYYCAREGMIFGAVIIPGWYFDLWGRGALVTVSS VL: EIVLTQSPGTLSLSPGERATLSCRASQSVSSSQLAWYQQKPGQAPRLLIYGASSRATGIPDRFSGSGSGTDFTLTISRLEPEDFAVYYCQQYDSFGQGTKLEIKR ?
## Output 5.5

## Input Consider the binder mAb15158 (antibody, V domains shown) VH: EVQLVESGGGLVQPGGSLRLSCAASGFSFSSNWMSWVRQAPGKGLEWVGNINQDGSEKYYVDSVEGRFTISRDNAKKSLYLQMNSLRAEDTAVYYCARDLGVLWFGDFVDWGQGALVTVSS VL: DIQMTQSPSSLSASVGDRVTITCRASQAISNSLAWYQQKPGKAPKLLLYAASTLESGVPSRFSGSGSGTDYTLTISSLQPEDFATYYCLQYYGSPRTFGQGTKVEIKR and give its measured t½.
## Output 6.64

## Input Look up t½ for this binder: mAb14232 (antibody, V domains shown) VH: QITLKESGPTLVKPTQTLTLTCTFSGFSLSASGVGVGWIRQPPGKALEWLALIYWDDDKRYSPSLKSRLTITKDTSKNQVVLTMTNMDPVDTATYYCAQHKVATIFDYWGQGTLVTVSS VL: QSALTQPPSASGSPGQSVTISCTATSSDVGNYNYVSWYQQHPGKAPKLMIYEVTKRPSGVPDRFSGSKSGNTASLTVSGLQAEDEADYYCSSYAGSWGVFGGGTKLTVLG
## Output 0.102

## Input Would you kindly share the measured t½ for mAb14289 (antibody, V domains shown) VH: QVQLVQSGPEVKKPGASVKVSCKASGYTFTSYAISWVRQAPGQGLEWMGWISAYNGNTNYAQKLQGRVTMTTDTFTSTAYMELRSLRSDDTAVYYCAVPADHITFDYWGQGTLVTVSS VL: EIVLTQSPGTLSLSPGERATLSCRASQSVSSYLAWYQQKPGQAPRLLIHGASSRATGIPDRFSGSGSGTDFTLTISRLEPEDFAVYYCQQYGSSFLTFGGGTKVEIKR ?
## Output 1.5

## Input Tell me the measured t½ of mAb15164 (antibody, V domains shown) VH: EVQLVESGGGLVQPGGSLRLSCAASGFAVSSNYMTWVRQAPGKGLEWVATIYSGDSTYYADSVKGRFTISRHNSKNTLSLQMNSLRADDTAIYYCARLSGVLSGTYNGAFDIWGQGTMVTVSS VL: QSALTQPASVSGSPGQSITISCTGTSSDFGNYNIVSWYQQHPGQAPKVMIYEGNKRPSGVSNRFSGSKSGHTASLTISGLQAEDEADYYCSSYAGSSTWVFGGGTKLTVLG , please.
## Output 2.05

## Input May I ask what t½ has been recorded for mAb14280 (antibody, V domains shown) VH: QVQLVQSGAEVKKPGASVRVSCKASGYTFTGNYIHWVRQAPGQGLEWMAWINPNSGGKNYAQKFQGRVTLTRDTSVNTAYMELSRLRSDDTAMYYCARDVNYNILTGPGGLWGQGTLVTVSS VL: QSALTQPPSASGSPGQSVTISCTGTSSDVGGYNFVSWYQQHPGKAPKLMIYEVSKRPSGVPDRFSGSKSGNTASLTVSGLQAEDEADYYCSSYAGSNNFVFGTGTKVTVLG ?
## Output 0.25

## Input Field request: t½ | item: mAb15163 (antibody, V domains shown) VH: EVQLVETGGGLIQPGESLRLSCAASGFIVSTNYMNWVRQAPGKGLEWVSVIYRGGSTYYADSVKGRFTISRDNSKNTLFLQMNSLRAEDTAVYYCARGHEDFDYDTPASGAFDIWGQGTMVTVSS VL: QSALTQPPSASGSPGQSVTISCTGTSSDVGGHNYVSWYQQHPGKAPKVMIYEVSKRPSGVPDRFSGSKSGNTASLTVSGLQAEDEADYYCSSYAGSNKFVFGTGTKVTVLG
## Output 7.7

## Input Recorded t½ of mAb15150 (antibody, V domains shown) VH: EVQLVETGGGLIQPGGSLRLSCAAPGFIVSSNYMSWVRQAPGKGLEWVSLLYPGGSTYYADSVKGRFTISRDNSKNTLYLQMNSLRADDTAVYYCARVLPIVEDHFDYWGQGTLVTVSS VL: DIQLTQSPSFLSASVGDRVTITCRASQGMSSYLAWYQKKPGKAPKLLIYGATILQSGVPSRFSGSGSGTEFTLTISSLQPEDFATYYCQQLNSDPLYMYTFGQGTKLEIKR , please.
## Output 6.88

## Input So what's the measured t½ for this one? mAb14255 (antibody, V domains shown) VH: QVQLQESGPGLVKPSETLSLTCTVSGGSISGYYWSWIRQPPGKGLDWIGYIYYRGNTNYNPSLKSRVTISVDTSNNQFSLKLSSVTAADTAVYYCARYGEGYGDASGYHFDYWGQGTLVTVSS VL: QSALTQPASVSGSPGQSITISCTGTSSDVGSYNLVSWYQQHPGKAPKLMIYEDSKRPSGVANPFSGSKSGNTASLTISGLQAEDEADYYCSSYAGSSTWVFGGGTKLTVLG
## Output 0.77
